The measurements presented in this section are drawn from the array DNA melting data of Ke et al. (doi:10.1101/2024.01.08.574731).

test: folding enthalpy; higher = less favourable; fluorescence melt of hairpins on a sequencing array, two-state fit; settings: sodium 0.088 M
Listing of recorded folding enthalpy by entry.
value.type: folding enthalpy (kcal/mol)

>>> data_value("GAAACCGAAAGGTGATTC ((((((....)))..)))")
-22.4
>>> data_value("GGTTACGAAAGTACAACC ((((((....)))..)))")
-19.1
>>> data_value("GGCCGGGGAAACCTGGCC ((((.((....)).))))")
-38.4
>>> data_value("GTACTCGAAAGAGAGTAC ((((((....)))..)))")
-29.4
>>> data_value("GACTTCGGAAACGAAGTC (((((((....)))))))")
-38.6
>>> data_value("GTCTGGCGAAAGCCCGAC (((.(((....))).)))")
-25.7
>>> data_value("GATCAATGTATTGATC ((((((....))))))")
-41.1
>>> data_value("GCAATCGAAAGATTATGC ((((((....)))..)))")
-17.5
>>> data_value("GGCTAGCCGAAAGGCGCC (((..(((....))))))")
-15.9
>>> data_value("GATCTTTATCAAGATC ((((((....))))))")
-29.4
>>> data_value("GATCTTTCGAAGATC ((((((...))))))")
-28.7
>>> data_value("GGCATCGAAAGATTAGCC ((((((....)))..)))")
-28.2
>>> data_value("GATCGAATAATCGATC ((((((....))))))")
-30.8
>>> data_value("GGTTTTCGAAAGAATACC (((.(((....))).)))")
-30.8
>>> data_value("GTCAACGAAAGTTGCGAC ((((((....)))..)))")
-17.7
>>> data_value("GGGCTGGGAAACCGGCTC (.((.((....)).)).)")
-19.7
>>> data_value("GAGCAAGGAAACTCGCTC ((((.((....)).))))")
-30.8
>>> data_value("GTTGGTGCGAAAGCAAAC (((..(((....))))))")
-20.7
>>> data_value("GCTTTGCGAAAGCCAAGC ((((.((....)).))))")
-23
>>> data_value("GCGAACGAAAGTTTTCGC ((((((....)))..)))")
-26.6
>>> data_value("GCGTATTGACGC ((((....))))")
-13.1
>>> data_value("GCGATCGTCGC ((((...))))")
-20.2
>>> data_value("GAGCGAGAAATCGCTC ((((((....))))))")
-30.4
>>> data_value("CGAATCGGAAACGAGTCG (((.(((....))).)))")
-40.2
>>> data_value("GGTATAGGAAACTATATC (.(((((....))))).)")
-17.1

----------
experiment: melting temperature; fluorescence melt of hairpins on a sequencing array, two-state fit, raised by 9.35 °C to match UV melts; settings: sodium 0.088 M
Classification by Tm follows these ranges: bottom: < 40 °C; middle: ≥ 40 °C and < 50 °C; top: ≥ 50 °C

>>> cat("CGGCCGGAAACGGTACCG ((((((....)))..)))")
"middle"
>>> cat("GGGTCAGGAAACTGATCC ((.((((....)))).))")
"top"
>>> cat("GGTGCAGGAAACTGCATC (.(((((....))))).)")
"top"
>>> cat("GAACCCCGAAAGGGCTTC (((.(((....))).)))")
"bottom"
>>> cat("GTGAGAGGAAACTCTTAC ((.((((....)))).))")
"bottom"
>>> cat("GCGCAGCGAAAGCGTCGC (((..((....))..)))")
"top"
>>> cat("GCTCAAGGAAACTTGAAC (.(((((....))))).)")
"bottom"
>>> cat("GGCTGATCGAAAGATGCC (((..(((....))))))")
"middle"
>>> cat("GGTCGCGAAAGCGTAACC ((((((....)))..)))")
"middle"
>>> cat("GCACGCGAAAGCGTTTGC ((((((....)))..)))")
"middle"
>>> cat("GAGGACGAAAGTCTCCTC ((((((....)))..)))")
"bottom"
>>> cat("GGGATTGGAAACAGTTCC ((.(.((....)).).))")
"bottom"

----------
test: folding enthalpy; higher = less favourable; fluorescence melt of hairpins on a sequencing array, two-state fit; conditions: sodium 0.088 M
value.type: folding enthalpy (kcal/mol)

>>> data_value("GCTAGCGGAAACACTAGC (((((.(....).)))))")
-32.2
>>> data_value("GACGGCGAAAGCCGAGTC ((((((....)))..)))")
-8.09
>>> data_value("CGGAGCGGAAACGCACCG (((.(((....))).)))")
-35
>>> data_value("GACAGAGAAATCTGTC ((((((....))))))")
-33.2
>>> data_value("GTCGGGGGAAACCCTGAC (((.(((....))).)))")
-53.6
>>> data_value("ACAGTGAAAACTGT (((((....)))))")
-19.2

----------
assay: melting temperature; fluorescence melt of hairpins on a sequencing array, two-state fit, raised by 9.35 °C to match UV melts; conditions: sodium 0.088 M
value.type: Tm (°C)

>>> data_value("GTCCTCGGAAACAAGGAC (((((.(....).)))))")
39.3
>>> data_value("GTGCGAGGAAACCCGCAC (((((.(....).)))))")
58.1
>>> data_value("GCGGAGCGAAAGCCACGC (((..((....))..)))")
58.4
>>> data_value("GTCTGTCGAAAGACTGAC (((.(((....))).)))")
54.4
>>> data_value("GGTAAGCGAAAGCTACC (((.(((....))))))")
55
>>> data_value("GCAGACGGAAACGCCTGC ((((.((....)).))))")
56
>>> data_value("GCATCGCGAAAGCGCTGC (((.(((....))).)))")
56
>>> data_value("GATCGTCCTCACGATC ((((((....))))))")
53.5
>>> data_value("GGCCAGGCGAAAGCCGCC (((..(((....))))))")
58.4
>>> data_value("CCTAGGAAACTAGG (((((....)))))")
41.2
>>> data_value("GAAAGCGAAAGCTCTTC ((((((....))).)))")
44.3
>>> data_value("GTCTTACCGAAAGGTGAC (((..(((....))))))")
35.7

----------
experiment: folding enthalpy; higher = less favourable; fluorescence melt of hairpins on a sequencing array, two-state fit; conditions: sodium 0.088 M
value.type: folding enthalpy

>>> data_value("GAGAGTGGAAACACTCTC (((((((....)))))))")
"-41.2 kcal/mol"
>>> data_value("GCACAGCGAAAGCAGAGC ((.(.((....)).).))")
"-13.7 kcal/mol"
>>> data_value("GCTGGTGGAAACGCTAGC (((.(.(....).).)))")
"-26.8 kcal/mol"
>>> data_value("GAAGGCGGAAACACCTTC (((((.(....).)))))")
"-30.9 kcal/mol"
>>> data_value("GGGTACGAAAGTAAACCC ((((((....)))..)))")
"-28.4 kcal/mol"
>>> data_value("GATCCACTTTTGGATC ((((((....))))))")
"-34.6 kcal/mol"
>>> data_value("GGTAGATCGAAAGATACC (((..(((....))))))")
"-19 kcal/mol"
>>> data_value("GATACCGCGAAAGCGATC (((..(((....))))))")
"-7.65 kcal/mol"
>>> data_value("GATCGTATATACGATC ((((((....))))))")
"-35.1 kcal/mol"
>>> data_value("GGCGAACGAAAGTTGCC (((.(((....))))))")
"-36.5 kcal/mol"
>>> data_value("GCACGACCGAAAGGTTGC (((..(((....))))))")
"-14.4 kcal/mol"
>>> data_value("GCTATCGAAAGATCGAGC ((((((....)))..)))")
"-10.1 kcal/mol"

----------
Listing of recorded folding enthalpy by entry.
assay: folding enthalpy; higher = less favourable; fluorescence melt of hairpins on a sequencing array, two-state fit; settings: sodium 0.088 M
value.type: folding enthalpy (kcal/mol)

>>> data_value("GGAAAGGAAACTTTCC ((((((....))))))")
-29.9
>>> data_value("GTCAGCCCGAAAGGGGAC (((..(((....))))))")
-13.7
>>> data_value("GATCGTCAGACGATC ((((((...))))))")
-35.2
>>> data_value("GGAGACGCGAAAGCGTCC (((..(((....))))))")
-7.09
>>> data_value("GGCATCCGAAAGGAGCC (((.(((....))))))")
-42.6
>>> data_value("GAATACCGAAAGGTTTTC (((.(((....))).)))")
-25.7
>>> data_value("CGTTTCGGAAACGACACG (((.(((....))).)))")
-29.6
>>> data_value("GGAAAGCGAAAGCTTCC (((.(((....))))))")
-18.1
>>> data_value("GAACGAGGAAACTCATTC (((.(((....))).)))")
-15.5
>>> data_value("GAGTGGGGAAACCTACTC ((((.((....)).))))")
-30.6
>>> data_value("GGACTTGGAAACAGGTCC ((((.((....)).))))")
-46.5
>>> data_value("GTCGTGGAAACACGAC ((((((....))))))")
-35.4
